B1: glmS ribozyme (parent)
chain: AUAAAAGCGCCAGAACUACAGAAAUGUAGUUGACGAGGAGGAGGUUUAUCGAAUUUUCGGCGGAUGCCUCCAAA

variants of: B1; test: self-cleavage kobs at 160 uM GlcN6P; higher = faster cleavage; RNA array; settings: with glucosamine-6-phosphate
This sample holds only a part of the variants without activity.
OBSERVATION_TYPE: self-cleavage kobs at 160 uM GlcN6P (s⁻¹)
Output spec: scalar in s⁻¹, unitless text.

Answered cases to consult:
POLYMER_SEQUENCE | OBSERVATION_TYPE | OUTPUT_UNIT | NUMERIC_RESULT
AUAAAAACGCCAGAACUACAGAAAUGUAGUUAACGAGGAGGAGGUUUAUGGAAUUUUCGGCGGAUGCCUCCAAA | self-cleavage kobs at 160 uM GlcN6P | s⁻¹ | 4.85e-05
AUAAAAGCGCCAGAGCUACAGAAAUGUAGUUGACGAGGGGGAGGUUUAUCGAAUUUUCGGCGGAUGCCUCCAAA | self-cleavage kobs at 160 uM GlcN6P | s⁻¹ | 0.00251
AUAAAAGCGCCAGAACUACAGAAAUGUAGUUGACGAGGAGGAGGUUUAUCGAAGUUUCGGCGGAUGCGUCCAAA | self-cleavage kobs at 160 uM GlcN6P | s⁻¹ | 6.82e-05
AUAAAAGCGCCAGAACUACAGAAAUGUAGUUGACGAGGAGGAGGUUUAUUGGAUUUUCGGCGGAUGCCUACAAA | self-cleavage kobs at 160 uM GlcN6P | s⁻¹ | 5.11e-05
AUAAAAGCGCCAGAACUACAGAAAUGUAGUUGACGAGGAGGAGGUUUAUCGAAUUUUCGGCGGAUAACUCCAAA | self-cleavage kobs at 160 uM GlcN6P | s⁻¹ | 0.000708
AUAAAAGCGCCAGCACUACAGAAAUGUAGUUGACGAGGAGGAGGUUUAUGGAAUUUUCGGCGGAUGCCUCCAAA | self-cleavage kobs at 160 uM GlcN6P | s⁻¹ | 5.43e-05
AUAAAAGCGCCAGAACUACAGAAAUGUAGUUGACGAGGAGUAGGUUUAUCGAAUUAUCGGCGGAUGCCUCCAAA | self-cleavage kobs at 160 uM GlcN6P | s⁻¹ | 7.37e-05
AUAAAAGCGCCAGAACUACAGAAAUGUAGUUGACGAGGAGGAGGUUUAUCGAAUUUUCGGCGGAGGCCUCAAAA | self-cleavage kobs at 160 uM GlcN6P | s⁻¹ | 6.43e-05
AUAAAAGCGCCAGAACUACAGAAAUGUAGUUGACGAGGAGGAGGCGUAUCGAAUUUUCGGCGGAUGCCUCCAAA | self-cleavage kobs at 160 uM GlcN6P | s⁻¹ | 7.78e-05
AUAAAAGCGCCAGACCUACAGAAAUGUAGUGGACGAGGAGGAGGUUUAUCGAAUUUUCGGCGGAUGCCGCCAAA | self-cleavage kobs at 160 uM GlcN6P | s⁻¹ | 4.96e-05

# self-cleavage kobs at 160 uM GlcN6P (variant: AUAAAAGCGCCAGGACUACAGAAAUGUAGUUGACGAGGAGGAGGUUUAUCGAAUUUUCGGCGGAUGCCUCAAAA ) is 0.000688

# self-cleavage kobs at 160 uM GlcN6P (variant: AUAAAAGCGCCAGAACUACAGAAAUGUAGUUGACGAGGAGGAGGUUUAUCGGAUUUCCGGCGGAUGCCUCCAAA ) is 2.83e-05

# self-cleavage kobs at 160 uM GlcN6P (variant: AUAAAAGCGCCAGAACUACAGAAAUGUAGUUGACGAGGAGGGGGUUUAUCGAAUUUUCGGCGGAUGGCUCCAAA ) is 0.00112
